Hey, just so you know, these numbers are from ChEMBL document CHEMBL4622956.

Target: Alpha-synuclein (Homo sapiens)
Assay: Inhibition of alpha-synuclein (unknown origin) aggregation incubated for 3 days by thioflavin T based fluorescence assay
observed_property: pIC50
Interpret pIC50 as the negative base-10 log of the concentration measured in mol/L.

Q. What value of pIC50 has been recorded for this entry: O=C(O)c1cc(O)c(O)c(O)c1
A. 5.35
